Data origin: patent US12091393B2

Test system: THP-1 cells
Assay: Cell viability assay (MTT)
Type: cell-based
Conditions: compound 5 μM alone, 18 h, normalized to DMSO as 100%
measuredMetric: MTT Compound alone % Viability (%)

[[record]]
compound = "C#Cc1sc(NC(=O)c2ccc(S(=O)(=O)N3CCCCC3)cc2)nc1-c1cc(C)ccc1C [Compound 18o]"
valueobserved = 111.27

[[record]]
compound = "CCN(CC)c1sc(NC(=O)c2ccc(S(=O)(=O)N3CCCCC3)cc2)nc1-c1cc(C)ccc1C [Compound 18g]"
valueobserved = 94.30

[[record]]
compound = "CCCCN(CCCC)S(=O)(=O)c1ccc(C(=O)Nc2nc(-c3cc(C)ccc3C)cs2)cc1 [Compound 58c]"
valueobserved = 86.41

[[record]]
compound = "CCN(c1ccccc1)S(=O)(=O)c1ccc(C(=O)Nc2nc(-c3cc(C)ccc3C)cs2)cc1 [Compound 58d]"
valueobserved = 81.42

[[record]]
compound = "Cc1ccc(C)c(-c2ccc(NC(=O)c3ccc(S(=O)(=O)N4CCCCC4)cc3)nc2)c1 [Compound 18c]"
valueobserved = 92.06

[[record]]
compound = "CCCC1CCN(S(=O)(=O)c2ccc(C(=O)Nc3nc(-c4cc(C)ccc4C)cs3)cc2)CC1 [Compound 58h]"
valueobserved = 111.27

[[record]]
compound = "Cc1ccc(C)c(-c2csc(NC(=O)c3cccc(C(=O)N4CCCCC4)c3)n2)c1 [Compound 49d]"
valueobserved = 88.06

[[record]]
compound = "Cc1ccc(C)c(-c2csc(C(=O)Nc3ccc(S(=O)(=O)N4CCCCC4)cc3)n2)c1 [Compound 34b]"
valueobserved = 91.08

[[record]]
compound = "Cc1ccc(C)c(-c2csc(NS(=O)(=O)c3ccc(C(=O)N4CCCCC4)cc3)n2)c1 [Compound 55]"
valueobserved = 58.91

[[record]]
compound = "C#Cc1ccc(C)c(-c2csc(NC(=O)c3ccc(S(=O)(=O)N4CCCCC4)cc3)n2)c1 [Compound 12t]"
valueobserved = 82.42

[[record]]
compound = "Cc1ccc(N=[N+]=[N-])c(-c2csc(NC(=O)c3ccc(S(=O)(=O)N4CCCCC4)cc3)n2)c1 [Compound 70]"
valueobserved = 77.84

[[record]]
compound = "Cc1ccc(C)c(-c2csc(NCc3ccc(S(=O)(=O)N4CCCCC4)cc3)n2)c1 [Compound 34a]"
valueobserved = 85.48

[[record]]
compound = "CCc1csc(NC(=O)c2ccc(S(=O)(=O)N3CCCCC3)cc2)n1 [Compound 12h]"
valueobserved = 122.75

[[record]]
compound = "Cc1ccc(C)c(-c2csc(NC(=O)c3ccc(S(=O)(=O)NC4CCCCC4)cc3)n2)c1 [Compound 58e]"
valueobserved = 93.65

[[record]]
compound = "Cc1ccccc1-c1csc(NC(=O)c2ccc(S(=O)(=O)N3CCCCC3)cc2)n1 [Compound 12b]"
valueobserved = 95.69

[[record]]
compound = "CCCC#Cc1sc(NC(=O)c2ccc(S(=O)(=O)N3CCC(CCC)CC3)cc2)nc1-c1cc(C)ccc1C [Compound 61]"
valueobserved = 102.98


----------
System: NF-κB
Experiment: cell-based NF-κB FRET assay
Settings: compound + LPS; two point normalized, compound 1 as 200%, LPS (10 ng/mL) as 100%
measuredMetric: NF-κB FRET Compound + LPS % Activation (%)

[[record]]
compound = "Cc1ccc(C)c(-c2nc(NC(=O)c3ccc(S(=O)(=O)N4CCCCC4)cc3)sc2N2CCCCC2)c1 [Compound 18h]"
measuredmetric = "NF-κB FRET Compound + LPS % Activation"
unitofmeasurement = "%"
valueobserved = 99.96

[[record]]
compound = "Cc1ccc(C)c(-c2csc(NC(=O)c3ccc(S(=O)(=O)N4CCN(C(=O)OC(C)(C)C)CC4)cc3)n2)c1 [Compound 58f]"
measuredmetric = "NF-κB FRET Compound + LPS % Activation"
unitofmeasurement = "%"
valueobserved = 95.64

[[record]]
compound = "Cc1ccc(C)c(-c2ccc(NC(=O)c3ccc(S(=O)(=O)N4CCCCC4)cc3)cn2)c1 [Compound 18d]"
measuredmetric = "NF-κB FRET Compound + LPS % Activation"
unitofmeasurement = "%"
valueobserved = 58.39

[[record]]
compound = "Cc1ccc(C)c(-c2csc(NC(=O)c3ccc(S(=O)(=O)N4CCNCC4)cc3)n2)c1 [Compound 58i]"
measuredmetric = "NF-κB FRET Compound + LPS % Activation"
unitofmeasurement = "%"
valueobserved = 101.27

[[record]]
compound = "Cc1ccc(N=[N+]=[N-])c(-c2csc(NC(=O)c3ccc(S(=O)(=O)N4CCCCC4)cc3)n2)c1"
measuredmetric = "NF-κB FRET Compound + LPS % Activation"
unitofmeasurement = "%"
valueobserved = 70.93

[[record]]
compound = "Cc1ccc(C)c(-c2cccc(NC(=O)c3ccc(S(=O)(=O)N4CCCCC4)cc3)n2)c1 [Compound 18b]"
measuredmetric = "NF-κB FRET Compound + LPS % Activation"
unitofmeasurement = "%"
valueobserved = 146.10

[[record]]
compound = "Cc1ccc(C)c(-c2nc(NC(=O)c3ccc(S(=O)(=O)N4CCCCC4)cc3)sc2Br)c1 [Compound 18n]"
measuredmetric = "NF-κB FRET Compound + LPS % Activation"
unitofmeasurement = "%"
valueobserved = 154.54

